Below, each entry is listed alongside its reported cytotoxicity at 10 µM.
# Test: Toxicity liver stage against HepG2, at 10uM
# Type: cell-based
# Set-up: test concentration 10 uM, cell line HepG2-A16-CD81EGFP
# Condition: human, HepG2-A16-CD81EGFP cells; read-out: INHIBITION
Write the value in % as a bare number.

Worked set:
The compound listed as Cc1nc(C)n(CC2CCCN2Cc2nc3ccccc3s2)n1 (centres undefined) shows cytotoxicity at 10 µM equal to -6.25

The compound listed as Cc1cc(OC(F)F)c(C(=O)NCC(O)c2cccc(F)c2)s1 (centres undefined) shows cytotoxicity at 10 µM equal to -4.3

The compound listed as CC(C)n1ncc2c1NC(=O)CC21C(=O)Nc2cc(Cl)cc(Cl)c21 (centres undefined) shows cytotoxicity at 10 µM equal to 19.1

The compound listed as COc1cc(C)c(C)cc1S(=O)(=O)N(C)CC(=O)Nc1ccon1 shows cytotoxicity at 10 µM equal to 2.74

The compound listed as CCN(C)CC(C)Cn1cnc(-c2ccccc2)c1C (centres undefined) shows cytotoxicity at 10 µM equal to -3.06

The compound listed as COc1cccc(CN(C)Cc2ccc(C#N)cc2)c1OC shows cytotoxicity at 10 µM equal to -8.34

The compound listed as O=C(Cc1ccc2c(c1)OCCO2)N1CCCC(n2cccn2)C1 (centres undefined) shows cytotoxicity at 10 µM equal to 7

The compound listed as CSc1ccc(OC(C)C(=O)Nc2cc[nH]n2)cc1 (centres undefined) shows cytotoxicity at 10 µM equal to 7.71

The compound listed as CCCc1noc(C(C)N2CCN(c3ccc(C#N)cn3)CC2)n1 (centres undefined) shows cytotoxicity at 10 µM equal to -0.487

The compound listed as CCn1cnnc1C1CCN(C(=O)c2c(C)oc(C)c2C)CC1 shows cytotoxicity at 10 µM equal to 5.89

Now examine the next entry.
The compound listed as O=C1CCc2ccccc2N1CCCn1cnnn1 shows cytotoxicity at 10 µM equal to 3.92

---

# Test: Toxicity liver stage against HepG2, at 10uM
# Format: cell-based
# Design: test concentration 10 uM, cell line HepG2-A16-CD81EGFP
# Condition: human, HepG2-A16-CD81EGFP cells; read-out: INHIBITION
Readout Name: cytotoxicity at 10 µM (%)
Write the value in % as a bare number.

Worked set:
The molecule listed as CC(=O)N1CC2(CCN(C(=O)CO)CC2)c2cc(C)ccc21 shows cytotoxicity at 10 µM equal to 9.37

The molecule listed as O=C(NCc1ccco1)c1cccc(CN2CCCC2CO)c1 (configuration not stated) shows cytotoxicity at 10 µM equal to -3.13

The molecule listed as CC(C)N(Cc1ccccn1)C(=O)CCC(=O)c1ccc(F)cc1F shows cytotoxicity at 10 µM equal to -0.535

The molecule listed as CS(=O)(=O)N1CCC2(CC1)CC(NCc1ccco1)c1ccccc12 (configuration not stated) shows cytotoxicity at 10 µM equal to -110

The molecule listed as Cn1cccc1C(=O)N1CCc2ncnc(N3CCOCC3)c2CC1 shows cytotoxicity at 10 µM equal to -74.3

The molecule listed as CCc1cc(N2CCN3CCCCC3C2)n2nccc2n1 (configuration not stated) shows cytotoxicity at 10 µM equal to -1.12

Further cases:
The molecule listed as Cn1cc(CN2CCCn3cnc(COCC4CC4)c3C2)cn1 shows cytotoxicity at 10 µM equal to -6.66

The molecule listed as COCCOC1CCN(C(C(=O)O)c2ccc(OC)c(F)c2)CC1 (configuration not stated) shows cytotoxicity at 10 µM equal to 7.42

The molecule listed as O=C(c1ncccn1)N1C[C@@H]2COC[C@]2(COc2cccnc2)C1 shows cytotoxicity at 10 µM equal to -91.5

The molecule listed as Cc1csc(-c2cccc(NC(=O)NCC(C)(C)C(N)=O)c2)n1 shows cytotoxicity at 10 µM equal to -4.25

The molecule listed as Cc1cnn(CC(=O)N2CCC(Nc3ccc(C)nn3)CC2)c1 shows cytotoxicity at 10 µM equal to -21.2

The molecule listed as O=C(C1COCCO1)N1CCN(Cc2ccc3c(c2)CCO3)CC1 (configuration not stated) shows cytotoxicity at 10 µM equal to -5.99

The molecule listed as NC(=O)N1CCCC(C(=O)NCCOc2ccc(F)c(F)c2)C1 (configuration not stated) shows cytotoxicity at 10 µM equal to 2.94

The molecule listed as NC(=O)COc1cccc(Cn2cc(Br)cn2)c1 shows cytotoxicity at 10 µM equal to 1.98

The molecule listed as Cc1nnc2n1CCN(Cc1nc(-c3ccoc3)no1)C2 shows cytotoxicity at 10 µM equal to -5.86

The molecule listed as CCc1nc(C2CCCN2Cc2nccn2Cc2ccccc2)no1 (configuration not stated) shows cytotoxicity at 10 µM equal to 0.89

The molecule listed as CC(C)N(CCO)C(=O)c1cc(COc2ccc3c(c2)CCCC3)on1 shows cytotoxicity at 10 µM equal to -135

The molecule listed as Cn1cnc2cc(NC(=O)c3n[nH]c4c3CCC4)ccc21 shows cytotoxicity at 10 µM equal to -0.806

The molecule listed as CCN1Cc2c(C(=O)NC(C)C)ncn2-c2ccccc2S1(=O)=O shows cytotoxicity at 10 µM equal to -83.9

The molecule listed as Cc1ccccc1C1CCN(CCn2cc(-c3nccn3C)nn2)C1 (configuration not stated) shows cytotoxicity at 10 µM equal to 4.96

The molecule listed as Cc1ccc(CN2CCCC3(CCN(Cc4ccc(C)o4)C3)C2)o1 (configuration not stated) shows cytotoxicity at 10 µM equal to -107

The molecule listed as CC(C)c1nccn1C(C)C(=O)N1CCN(c2cnccn2)CC1 (configuration not stated) shows cytotoxicity at 10 µM equal to -12.5

The molecule listed as CC(C)c1nnc2n1CCN(C(=O)c1cc(Cl)c[nH]1)C2 shows cytotoxicity at 10 µM equal to -11.4

The molecule listed as O=C(CNc1nc(C(F)(F)F)cs1)N1CCc2sccc2C1 shows cytotoxicity at 10 µM equal to 15.1

The molecule listed as COCCN1CCN(Cc2ccco2)Cc2ccc(C)nc21 shows cytotoxicity at 10 µM equal to 0.657

---

# Test: Toxicity liver stage against HepG2, at 10uM
# Assay type: cell-based
# Parameters: test concentration 10 uM, cell line HepG2-A16-CD81EGFP
# Condition: human, HepG2-A16-CD81EGFP cells; read-out: INHIBITION
Readout Name: cytotoxicity at 10 µM (%)
Write the value in % as a bare number.

Worked set:
The compound listed as N#Cc1ccc(NCCC2CCN(CC(F)(F)F)CC2)nc1 shows cytotoxicity at 10 µM equal to 5.92

The compound listed as COc1c(C2CCCN2Cc2nc(C)c(C)o2)c(C)nn1C (stereo not drawn) shows cytotoxicity at 10 µM equal to -2

The compound listed as Cc1nc(CO[C@@H]2CN(Cc3ccco3)[C@@H]3COC[C@@H]32)cs1 shows cytotoxicity at 10 µM equal to 5.66

The compound listed as C/C=C(\C)CN1C[C@H](NC(=O)c2cc[nH]c2C)[C@@H](C2CC2)C1 shows cytotoxicity at 10 µM equal to 4.96

The compound listed as COCCCNC(=O)NCc1ccc(N2CCOC(C)C2)nc1 (stereo not drawn) shows cytotoxicity at 10 µM equal to -5.82

The compound listed as Cc1cccc(C(=O)N2CCCSCC2CN2CCCC2)c1 (stereo not drawn) shows cytotoxicity at 10 µM equal to 8.77

The compound listed as COc1cc(N2C[C@H]3CC[C@@H](C2)N(CC2CCC2)C3=O)ncn1 shows cytotoxicity at 10 µM equal to -1.15

The compound listed as CC(=O)N1CCc2c(nc(N(C)C)nc2N(C)CCCC2CCCO2)C1 (stereo not drawn) shows cytotoxicity at 10 µM equal to 7.92

The compound listed as COc1cccc(-c2cc(C(=O)N3N=C(C)CC3(O)C(F)(F)F)[nH]n2)c1 (stereo not drawn) shows cytotoxicity at 10 µM equal to 5.97

The compound listed as CC(C)(C)c1ncc(CNc2ccn(CCc3ccncc3)n2)s1 shows cytotoxicity at 10 µM equal to 26.1

Now examine the next entry.
The compound listed as COCCN1C(=O)[C@@H]2CC[C@H]1CN(S(=O)(=O)c1ccc(OC)cc1)C2 shows cytotoxicity at 10 µM equal to 6.35

---

Below, each entry is listed alongside its reported cytotoxicity at 10 µM.
# Test: Toxicity liver stage against HepG2, at 10uM
# Type: cell-based
# Set-up: test concentration 10 uM, cell line HepG2-A16-CD81EGFP
# Condition: human, HepG2-A16-CD81EGFP cells; read-out: INHIBITION
Write the value in % as a bare number.

Worked set:
The molecule listed as CCC(C(=O)NC1CCN(S(C)(=O)=O)CC1)n1cccn1 (stereo unspecified) shows cytotoxicity at 10 µM equal to -2.42

The molecule listed as CC(Nc1ncnc2c1CCNC2)c1ccc(C(C)(C)C)cc1 (stereo unspecified) shows cytotoxicity at 10 µM equal to 28

The molecule listed as CCc1cc(N(C)Cc2nonc2C)nc(N(C)C)n1 shows cytotoxicity at 10 µM equal to -6.32

The molecule listed as CC(C)N1CCN(C(=O)Nc2cnc3c(cnn3C(C)C)c2)CC1 shows cytotoxicity at 10 µM equal to 6.23

The molecule listed as Cc1ccc(OCCN(C)C(=O)NC(C)c2nncn2C)cc1 (stereo unspecified) shows cytotoxicity at 10 µM equal to -9.77

Further cases:
The molecule listed as CCC(=O)NC1CCCN(C(=O)Nc2cc(-c3ccccc3)on2)C1 (stereo unspecified) shows cytotoxicity at 10 µM equal to 6.64

The molecule listed as Cc1noc([C@@H]2CC[C@@H]3[C@@H](CCN3c3nnc(C)s3)O2)n1 shows cytotoxicity at 10 µM equal to 9.28

The molecule listed as CCn1cc(Cl)c(C(=O)NCCCN(C)C)n1 shows cytotoxicity at 10 µM equal to 9.46

The molecule listed as Cc1cc(C)n(-c2ccc(CNCc3ccc(C)o3)cn2)n1 shows cytotoxicity at 10 µM equal to -6.57

The molecule listed as CCN1CCN(C[C@H]2CC[C@@H](Cc3ccc4c(c3)OCO4)O2)CC1 shows cytotoxicity at 10 µM equal to -5.97

The molecule listed as Cc1ccc(C2CC(=O)NCc3nc(N)sc32)cc1C (stereo unspecified) shows cytotoxicity at 10 µM equal to -8.47
